Hello, the source for this data is the supplement of paper PMC11208160, in case you need it.

Provide the recorded recombinant UMI read abundance (log10) for the entries that follow.
# method: recombinant UMI read abundance after kanamycin selection (control-corrected) (log10(CPM+1)); higher = more efficient recombination; extreme values may be limits of the assay; sequences stand for … in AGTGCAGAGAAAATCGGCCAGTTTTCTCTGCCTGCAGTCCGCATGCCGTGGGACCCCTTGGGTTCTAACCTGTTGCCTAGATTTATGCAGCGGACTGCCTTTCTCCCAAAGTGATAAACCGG…AGGTTGGTTTCACT; site = the 11-nt donor;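 note: IS621 bridge recombinase in Escherichia coli cells against a fixed T5 target plasmid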
Give bare numbers.

Worked examples, 6 sequences total:
# sequence.input, endpoint.value
data = [
    ("GTCCCCACATGGACCGGTTTTCCCGGTAATCCGTATTTGTA (site GTCCCCACTTA)", 1.14),
    ("CGCCACACATGGACCGGTTTTCCCGGTAATCCGTATTTGTA (site CACCACACTTA)", 0.727),
    ("CTCCTAACATGGACCGGTTTTCCCGGTAATCCGTATTTGGA (site CTGCTAACTTC)", 0.0178),
    ("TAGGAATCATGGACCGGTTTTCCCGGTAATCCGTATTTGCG (site TAGAAATCTCG)", 2.39),
    ("ATGCAGACATGGACCGGTTTTCCCGGTAATCCGTATTTGCA (site AGGAAGACTTG)", 0),
    ("CGATCGACATGGACCGGTTTTCCCGGTAATCCGTATTTGAT (site CGATCGACTAC)", 0),
]

Look at each sequence and report its recombinant UMI read abundance (log10).
1. GAATGGCCATGGACCGGTTTTCCCGGTAATCCGTATTTGAA (site GAATGGCCTTA)
2. GCCTACCCATGGACCGGTTTTCCCGGTAATCCGTATTTGGC (site GCCTACCCTGC)
3. GATTTGGCATGGACCGGTTTTCCCGGTAATCCGTATTTGTG (site AATTTGGCTCA)
4. CGGGAGTCATGGACCGGTTTTCCCGGTAATCCGTATTTGGC (site CGGGAGTCTGA)
5. TAGTTTCCATGGACCGGTTTTCCCGGTAATCCGTATTTGAA (site TAGTTTCCTTT)
6. ACCTAGTCATGGACCGGTTTTCCCGGTAATCCGTATTTGGG (site ACCTAGTCTCC)
7. GCGAAGCCATGGACCGGTTTTCCCGGTAATCCGTATTTGTG (site GCGAAGCCTCT)

[out]
1. 0.00888
2. 0
3. 0.142
4. 1.59
5. 0.228
6. 0.0642
7. 1.98

Look at each sequence and report its recombinant UMI read abundance (log10).
1. ACGCGTGCATGGACCGGTTTTCCCGGTAATCCGTATTTGAC (site ACGCGTGCTGT)
2. CCCTTGGCATGGACCGGTTTTCCCGGTAATCCGTATTTGGA (site CTCTTGGCTTC)
3. CCAGGAGCATGGACCGGTTTTCCCGGTAATCCGTATTTGAT (site CCAGGTGCTAT)
4. AAGCACGCATGGACCGGTTTTCCCGGTAATCCGTATTTGGA (site AAGCACGCTTC)
5. ATCCAACCATGGACCGGTTTTCCCGGTAATCCGTATTTGAG (site ATCCAAGCTCT)
6. AGGTAGACATGGACCGGTTTTCCCGGTAATCCGTATTTGCA (site AGGAAGACTTG)

[out]
1. 2.96
2. 0.00833
3. 1.78
4. 0.817
5. 0.133
6. 1.23
